System: UACC-257 melanoma
Assay: NCI tumour cell line growth inhibition, 48 h
Parameter: TGI (µM)
Form entry: value (µM) — number only.

Prompt: What does the record list as TGI for O=S(=O)(O)c1ccc(Cl)cc1.[Cd] ?
Response: 78.8

Others:
Prompt: What does the record list as TGI for Cn1cc(C2=C(c3c4n(c5ccccc35)CC(CN)C4)C(=O)NC2=O)c2ccccc21 (stereo unspecified) ?
Response: 7.8

Prompt: Again, but for O/N=C(\C=N\O)c1ccc2c(c1)Sc1ccccc1O2
Response: 42

Prompt: Again, but for CC(=O)Nc1ccc2c3c(cc(O)c2c1)N(C(=O)CCCC(=O)Nc1ccc2c4c(cc(O)c2c1)N(C(=O)OC(C)(C)C)CC4CCl)CC3CCl (stereo unspecified)
Response: 3.34

Prompt: Again, but for Brc1ccccc1/C=C\C1(c2ccccc2)OCCO1
Response: 34.5

Prompt: Again, but for COCC[N+](CCNC(=O)c1cccc2c(N)c3cccc(C)c3nc12)(CCOC)Cc1ccc([N+](=O)[O-])cc1
Response: 46

Prompt: Again, but for COCC1C(=O)c2cc3c(cc2C12C=CC1(C=C2)OCCO1)OCO3 (stereo unspecified)
Response: 32.6

Prompt: Again, but for C=C1C(=O)O[C@H]2[C@H]1CC/C(COC(=O)/C=C\C(=O)NCc1ccc(Cn3c(=O)sn(-c4ccc(OC)cc4)c3=O)cc1)=C\CC[C@@]1(C)O[C@@H]21
Response: 1.86

Prompt: Again, but for C[N+](C)(C)CCC(=O)N1C/C(=C\c2ccccc2)C(=O)/C(=C/c2ccccc2)C1
Response: 28.2

Prompt: Again, but for COc1ccc(-c2cc(-c3ccc(O)cc3)nc3nc(=S)[nH]c(N)c23)cc1
Response: 36.3
